# Test system: Danio rerio larvae (5 dpf)
# measurement_protocol: optomotor response to green moving lines, difference vs DMSO (percentage points (treated minus DMSO)); higher = more of the behaviour than the DMSO vehicle control
# condition_info: 10 µM; exposure time: 3 h pre-incubation + 3 h imaging
Counter-ions that a name gives are not always drawn.
Each entry below lists one item and its recorded optomotor response to green moving lines value.
measure: optomotor response to green moving lines

[[record]]
compound = "COc1cccc2c1C(=O)c1c(O)c3c(c(O)c1C2=O)C[C@@](O)(C(=O)CO)C[C@@H]3O[C@H]1C[C@H](N)[C@H](O)[C@H](C)O1 [Doxorubicin hydrochloride]"
recorded_result = -8.47

[[record]]
compound = "CN[C@H]1CC[C@@H](c2ccc(Cl)c(Cl)c2)c2ccccc21 [Sertraline hydrochloride]"
recorded_result = -6.64

[[record]]
compound = "Cc1ccccc1C(=O)Nc1ccc(C(=O)N2CCCC(O)c3cc(Cl)ccc32)c(C)c1 (configuration not stated)"
recorded_result = 10.3

[[record]]
compound = "Cc1c(-c2ccc(O)cc2)n(Cc2ccc(OCCN3CCCCCC3)cc2)c2ccc(O)cc12 [Bazedoxifene acetate]"
recorded_result = -2.2

[[record]]
compound = "Nc1cccc2c1CN(C1CCC(=O)NC1=O)C2=O (configuration not stated) [Lenalidomide]"
recorded_result = 7.44

[[record]]
compound = "CNCc1ccc(-c2[nH]c3cc(F)cc4c3c2CCNC4=O)cc1 [Rucaparib camsylate]"
recorded_result = 1.55

[[record]]
compound = "CCOC(=O)C1=C(C)NC(C)=C(C(=O)OC)C1c1cccc(Cl)c1Cl (configuration not stated)"
recorded_result = -6.01


* * *

# Test system: Danio rerio larvae (5 dpf)
# measurement_protocol: habituation to 1-s acoustic pulses, difference vs DMSO (percentage points (treated minus DMSO)); higher = more of the behaviour than the DMSO vehicle control
# condition_info: 10 µM; exposure time: 3 h pre-incubation + 3 h imaging
Counter-ions that a name gives are not always drawn.
measure: habituation to 1-s acoustic pulses

[[record]]
compound = "CCCCc1nc(Cl)c(CO)n1Cc1ccc(-c2ccccc2-c2nnn[nH]2)cc1 [Losartan potassium]"
measure = "habituation to 1-s acoustic pulses"
recorded_result = 0.91

[[record]]
compound = "CC(C)n1c(/C=C/C(O)CC(O)CC(=O)O)c(-c2ccc(F)cc2)c2ccccc21 (centres undefined) [Fluvastatin sodium]"
measure = "habituation to 1-s acoustic pulses"
recorded_result = 4.04

[[record]]
compound = "Brc1c(NC2=NCCN2)ccc2nccnc12"
measure = "habituation to 1-s acoustic pulses"
recorded_result = -5.95

[[record]]
compound = "CC(=O)NC[C@H]1CN(c2ccc(N3CCOCC3)c(F)c2)C(=O)O1 [Linezolid]"
measure = "habituation to 1-s acoustic pulses"
recorded_result = -2.78

[[record]]
compound = "Cc1nc(-c2ccc(OCC(C)C)c(C#N)c2)sc1C(=O)O [Febuxostat]"
measure = "habituation to 1-s acoustic pulses"
recorded_result = -2.75

[[record]]
compound = "Nc1nc(F)nc2c1ncn2[C@@H]1O[C@H](CO)[C@@H](O)[C@@H]1O [Fludarabine]"
measure = "habituation to 1-s acoustic pulses"
recorded_result = -1.56

[[record]]
compound = "N#Cc1ccc2[nH]cc(CCCCN3CCN(c4ccc5oc(C(N)=O)cc5c4)CC3)c2c1 [Vilazodone hydrochloride]"
measure = "habituation to 1-s acoustic pulses"
recorded_result = -3.73

[[record]]
compound = "O=c1n(CCCN2CCN(c3cccc(Cl)c3)CC2)nc2ccccn12 [Trazodone hydrochloride]"
measure = "habituation to 1-s acoustic pulses"
recorded_result = -10.7

[[record]]
compound = "CCCN(CCC)S(=O)(=O)c1ccc(C(=O)O)cc1 [Probenecid]"
measure = "habituation to 1-s acoustic pulses"
recorded_result = 4.24


Each recorded value in this set is attributed to the supplement of paper PMC9023506.
